tested on: Plasmodium berghei; experiment: Screen against P. berghei liver stage (PbLuc), transformed with Luciferase, at 2uM; format: functional, HepG2; details: tested at 2 uM
Among all 68,000 compounds or so, about 2,700 (4%) showed an effect of 50% or more. Many of the other results were omitted from the sample, so strong results are more common in it than they were.
Measure: INHIBITION (%)

1) O=C(CC1COCCN1C(=O)c1cscn1)c1ccccc1 (stereo not drawn) | 5.43
2) CCN(CC)C(=O)N1CCN(Cc2cnc(C)nc2)[C@H]2CS(=O)(=O)C[C@H]21 | 29.51
3) Cc1noc(C)c1CN1CC2(CCN(C(=O)c3c[nH]cn3)C2)CC1=O (stereo not drawn) | 47.35
4) CC(C(=O)NCCc1cccs1)N1CCC(n2ccnc2)CC1 (stereo not drawn) | -22.69
5) c1ccc(-n2cc(CN3CCCC3Cn3cncn3)nn2)cc1 (stereo not drawn) | 15.47
6) CCc1cc(N2CCCNCC2)n2nc(C)c(C)c2n1 | 14.23
7) CC(=O)Nc1ccc(CN2CCOC2=O)cc1 | 55.66
8) Cc1ccn2ncc(C(=O)N3CCCC(c4cc(C)[nH]n4)C3)c2n1 (stereo not drawn) | 18.91
9) CCc1nccn1C1CCCN(C(=O)c2cnn3ccc(C)nc23)C1 (stereo not drawn) | -14.3
10) CCn1ncc(CN2CCCC(n3c(=O)oc4ccccc43)C2)c1C (stereo not drawn) | -3.96
11) CC(C)(C)CN1CCC(c2nnc(Cn3ccnc3)n2C2CC2)CC1 | -13.72
12) Cc1ccn2ncc(C(=O)N3CCCC(n4ccnc4C)C3)c2n1 (stereo not drawn) | 56.02
13) c1cn(Cc2nnc(C3CCN(C4CCOCC4)CC3)n2C2CC2)cn1 | 24.88
14) O=C(NC1CCC1)[C@@H]1CCO[C@@H]2CCN(C3CCCC3)C[C@H]21 | 51.26
15) CCc1nnc2n1CCN(C(=O)c1cc3c(F)cccc3[nH]1)C2 | 9.17
16) CC(C(=O)Nc1ccc2ccccc2c1)N1CCC(n2ccnc2)CC1 (stereo not drawn) | -17.84
17) Cc1cnn(C2CN(CCOc3ccccc3C#N)C2)c1 | -21.72
18) NC(=O)C1(CCCc2ccncc2)CCCN1 (stereo not drawn) | 46.98
19) O=C([C@H]1CN(Cc2ccccc2F)C[C@H]2OCC[C@@H]12)N1CCCO1 | 13.61
20) CCc1cccc(OCC(=O)NC(C)c2nnc3n2CCC3)c1 (stereo not drawn) | 0.31
21) CCC(=O)N1CCN(Cc2cnc(C)nc2)[C@H]2CS(=O)(=O)C[C@H]21 | -36.29
22) CC(C(=O)Nc1ncccn1)N1CCC(n2ccnc2)CC1 (stereo not drawn) | 61.56
23) O=C(NC1CC1)c1cc(NC(=O)N2CCCC2)ccc1Cl | 31.51
24) CCc1ocnc1C(=O)Nc1ccc2ccn(CCN(C)C)c2c1 | 53.19
25) CN(C)C(=O)C1(CCCc2ccncc2)CCCN1 (stereo not drawn) | 54.82
26) O=S(=O)(Cc1cccc(Cl)c1)CC(O)Cn1cccn1 (stereo not drawn) | -17.17
27) NCCN1CCC(c2nnc(Cn3ccnc3)n2C2CC2)CC1 | 52.08
28) O=C(NCCCn1cccn1)N1CCCC1c1ccsc1 (stereo not drawn) | 16.21
29) CCc1nnc(C(C)N2CCN(CCC(=O)NC3CC3)CC2)o1 (stereo not drawn) | 35.61
30) Cc1nc(CN(C)c2nccc(N(C)C)n2)cs1 | -13.89
31) COc1ccnc(N(C)Cc2csc(C)n2)n1 | -21.99
32) CCOCCN1CCC(C(=O)c2cc(F)ccc2F)CC1 | 43
33) Cc1nc(CN(C)c2nccc(C(F)(F)F)n2)cs1 | 60.13
34) c1ccc(CCN2CCCC(c3ccnc4nccn34)C2)cc1 (stereo not drawn) | 32.74
35) CN(C)C(=O)c1cc2c(nc1NCC1CC1)CCNCC2 | 43.06
36) CCCOc1cc(C)ccc1NC(=O)NCCC(=O)N(C)C | -36.17
37) CN(C)C(=O)c1ccc(C2CCCN2C(=O)CCC2=NNC(=O)CC2)s1 (stereo not drawn) | -11.64
38) Cc1ccn2ncc(C(=O)N3CCCC(c4noc(C)n4)C3)c2n1 (stereo not drawn) | 50.52
39) Cc1csc(C2CCCN(C(=O)c3cnn4ccc(C)nc34)C2)n1 (stereo not drawn) | 14.96
40) O=C(NS(=O)(=O)c1cc(Cl)ccc1Cl)c1cccc2c1OCCO2 | -55.23
41) O=C(c1cccnc1)N1CCC2(CCN(C(=O)c3ccco3)CC2)C1 | 14.52
42) CS(=O)(=O)N1CCC(c2nnc(Cn3ccnc3)n2C2CC2)CC1 | -13.72
43) CC(C)CCN1CCNC(=O)C1CC(=O)NCCc1cc(O)ncn1 (stereo not drawn) | 17.99
44) CCC[C@H]1CN(C(=O)Cn2ccccc2=O)C[C@@H]1NS(C)(=O)=O | 5.21
45) CCSc1cc(C(=O)NCc2ccc(C(=O)NC)cc2)ccn1 | 19.48
46) O=C(NC1CC1)c1cc(NC(=O)N2CCOCC2)ccc1Cl | 64.9
47) CN(CCCNC(=O)N1CCCC1c1ccsc1)c1ccccn1 (stereo not drawn) | 63.95
48) Cc1ccn2ncc(C(=O)N3CCCC(n4cccn4)C3)c2n1 (stereo not drawn) | 5.52
